# assayName: in vitro
# conditionDetails: human, Caco-2, pH 7.4
observationType: Papp A→B

molecule=OC[C@@H](O)[C@@H](O)[C@H](O)[C@H](O)CO experimentalvalue="3 ×10⁻⁶ cm/s"
molecule=CC(C)(C)NC[C@H](O)COc1nsnc1N1CCOCC1 experimentalvalue="25.4 ×10⁻⁶ cm/s"
molecule="NS(=O)(=O)c1cc2c(cc1Cl)NCNS2(=O)=O [Hydrochlorthiazide]" experimentalvalue="6.9 ×10⁻⁶ cm/s"
molecule=NC(N)=Nc1nc(CSCCC(N)=NS(N)(=O)=O)cs1 experimentalvalue="1.36 ×10⁻⁶ cm/s"
molecule="NC(=O)N1c2ccccc2C=Cc2ccccc21 [Carbamazepine]" experimentalvalue="84.6 ×10⁻⁶ cm/s"
molecule="COCCc1ccc(OCC(O)CNC(C)C)cc1 (stereo not shown)" experimentalvalue="43.6 ×10⁻⁶ cm/s"
molecule="CC(C)NCC(O)COc1cccc2ccccc12 (stereo not shown)" experimentalvalue="19.3 ×10⁻⁶ cm/s"
molecule=CC1(C)S[C@@H]2[C@H](NC(=O)[C@H](N)c3ccc(O)cc3)C(=O)N2[C@H]1C(=O)O experimentalvalue="0.02 ×10⁻⁶ cm/s"
molecule="CC(C)n1c(/C=C/C(O)CC(O)CC(=O)O)c(-c2ccc(F)cc2)c2ccccc21 (stereo not shown)" experimentalvalue="10.8 ×10⁻⁶ cm/s"
molecule="CC(C(=O)O)c1cccc(C(=O)c2ccccc2)c1 (stereo not shown)" experimentalvalue="48.6 ×10⁻⁶ cm/s"
molecule=Nc1nc2c(ncn2COCCO)c(=O)[nH]1 experimentalvalue="3.8 ×10⁻⁶ cm/s"
molecule=CNC(=C[N+](=O)[O-])NCCSCc1ccc(CN(C)C)o1 experimentalvalue="2.2 ×10⁻⁶ cm/s"
molecule="CC(C)(C)NCC(O)c1cc(O)cc(O)c1 (stereo not shown)" experimentalvalue="5.54 ×10⁻⁶ cm/s"
